- test target: PKR(R510Q) (Homo sapiens, UniProt P30613, R510Q)
- Sequence (P30613 whole entry R510Q): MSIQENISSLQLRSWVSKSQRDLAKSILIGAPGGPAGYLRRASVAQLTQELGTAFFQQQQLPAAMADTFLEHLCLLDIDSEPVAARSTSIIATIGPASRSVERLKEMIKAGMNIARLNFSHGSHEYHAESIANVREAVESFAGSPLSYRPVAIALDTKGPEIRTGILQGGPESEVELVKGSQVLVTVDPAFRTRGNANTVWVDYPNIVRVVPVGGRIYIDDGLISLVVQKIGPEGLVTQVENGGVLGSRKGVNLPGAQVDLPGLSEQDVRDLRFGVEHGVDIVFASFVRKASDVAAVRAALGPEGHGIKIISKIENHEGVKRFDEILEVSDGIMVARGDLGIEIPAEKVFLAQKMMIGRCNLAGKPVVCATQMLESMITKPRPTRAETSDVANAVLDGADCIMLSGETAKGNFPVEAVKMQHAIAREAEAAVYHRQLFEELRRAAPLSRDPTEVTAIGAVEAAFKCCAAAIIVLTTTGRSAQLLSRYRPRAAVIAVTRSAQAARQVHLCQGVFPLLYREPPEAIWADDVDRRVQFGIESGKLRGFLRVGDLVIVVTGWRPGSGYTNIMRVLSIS
- assay summary: Luminescence Biochemical Assay (Kinase Glo Plus), PKR R510Q mutant
- measurement setup: without FBP, read-out: AC50 LUM KGP woFBP MAX % FOLD mean
test readout: Emax

O=C(N1CC2=C(C1)CN(S(=O)(=O)c1ccccn1)C2)C1(O)CC1 : 75 to 250%
Cc1cc(CNC(=O)N2CC3=C(C2)CN(S(=O)(=O)c2ccc4ncsc4c2)C3)on1 : 250 to 500%
Cc1nc(S(=O)(=O)N2CC3=C(CN(C(=O)[C@H](C)c4ccccc4)C3)C2)cn1C : 75 to 250%
O=C(NCc1ccccc1F)N1CC2=C(C1)CN(S(=O)(=O)c1ccc3ncsc3c1)C2 : 250 to 500%
COc1cccc(CNC(=O)N2CC3=C(C2)CN(S(=O)(=O)c2cccc4cnccc24)C3)c1 : 75 to 250%

Continue with the compound presented below.
Please indicate Emax recorded for O=C(C1OCCc2ccccc21)N1CC2=C(C1)CN(S(=O)(=O)c1ccc(OC(F)F)cc1)C2 (stereo not shown)
250 to 500%
